System Name: DR4Dw14 (DRA1*0101 DRB1*0404) (Homo sapiens, UniProt P01903+P01911, A100R/A169T/F76Y/I96L/K127E/L162R/M171V/N62H/P40V/Q125Y/R42H/S133A/S149N/S66Y/V209L/W38E)
Protocol Details: Competitive binding to MHC-II protein DR4Dw14
Condition Label: 0404; read-out: Protein binding IC50 (nM) 0404
Numbered stars: 1 amine (or outer) side, 2 acyl side, 3 side chain; on linkers, the order of the positions; unused ones are H or OH. Square brackets hold non-standard residues; d marks the D form. Peptide text beside a SMILES is read from it. * marks the point of attachment. ξ: configuration not given here. Gly(1-amidinopiperidin-4-yl) = N=C(N)N1CCC([C@H](N)C(=O)O)CC1; X1 = CC(C)c1oc([C@H](CO)N[*:1])nc1C(=O)[*:2]; Pro(3R-Ph) = O=C(O)[C@H]1NCC[C@@H]1c1ccccc1; Tic = O=C(O)[C@@H]1Cc2ccccc2CN1; Cha = N[C@@H](CC1CCCCC1)C(=O)O; ξDisc = O=C(O)C1NCc2ccccc21; Nle = CCCC[C@H](N)C(=O)O; X2 = OCCOCCN(Cc1ccccc1)*

[
  {
    "Molecule": "CSCC[C@H](NC(=O)C1c2ccccc2CN1C(=O)[C@@H](NC(=O)[C@H](CC1CCCCC1)NC(C)=O)C1CCN(C(=N)N)CC1)C(=O)N1CC[C@H](c2ccccc2)[C@H]1C(=O)N[C@@H](CO)c1nc(C(=O)N(C)C)c(C(C)C)o1 (stereo partly drawn) [Compound P41-1] (Ac-[Cha][Gly(1-amidinopiperidin-4-yl)][ξDisc]M[Pro(3R-Ph)][X1]-NMe2)",
    "IC50 (nM)": 110
  },
  {
    "Molecule": "CCCC[C@H](NC(=O)[C@@H]1Cc2ccccc2CN1C(=O)[C@@H](NC(=O)[C@H](CC1CCCCC1)NC(C)=O)C1CCN(C(=N)N)CC1)C(=O)N(CCOCCO)Cc1ccccc1 [Compound P101, Ac-Cha-Gpg-Tic-Nle-N(Bn)CH2CH2OCH2CH2OH] (Ac-[Cha][Gly(1-amidinopiperidin-4-yl)][Tic][Nle]-X2)",
    "IC50 (nM)": 650
  },
  {
    "Molecule": "CSCC[C@H](NC(=O)[C@@H]1Cc2ccccc2CN1C(=O)[C@H](CCCNC(=N)N)NC(=O)[C@H](CC1CCCCC1)NC(C)=O)C(=O)N(CCOCCO)Cc1ccccc1 [Compound P99, Ac-Cha-Arg-Tic-Met-N(Bn)CH2CH2OCH2CH2OH] (Ac-[Cha]R[Tic]M-X2)",
    "IC50 (nM)": 1900
  }
]
